Test: basal MM1S mitochondrial membrane potential changes, profiling panel, cell-based, JC-1 fluorescence, 24 h, 100 nL compound (AID 1170); also: test concentration not given here
Conditions: higher = more signal
Could you please report measured z-score for the items listed next?
// response body must contain only the number

Asked: Need z-score, item "COC(=O)C[C@H]1O[C@]2(C(=O)N(C)c3ccccc32)[C@@H](C)[C@@H]1[Si](C)(C)c1ccccc1"
Given back: 0.425

Asked: Moving on to "O=C1O[C@H](c2ccccc2)[C@H](c2ccccc2)N2[C@H]1[C@@H](C(=O)O)[C@]1(C(=O)Nc3ccccc31)[C@H]2c1ccc(OCCO)cc1"
Given back: 0.0484

Asked: Moving on to "COc1ccc(CCNC(=O)[C@@H]2c3ccccc3C(=O)N(Cc3cc(F)cc(C(F)(F)F)c3)[C@H]2c2ccc(CO)cc2)cc1"
Given back: 0.558

Asked: Moving on to "COc1ccc([Si](C)(C)[C@H]2[C@H](CC(=O)N3CCC[C@H]3CO)O[C@@]3(C(=O)N(C)c4ccccc43)[C@@H]2C)cc1"
Given back: -0.265

Asked: Moving on to COc1ccc(C(O)C2C=CC3C(=O)N(C)C(=O)C3N2Nc2ccccc2)cc1 (configuration not stated)
Given back: -0.153

Asked: Moving on to "C=CC[C@]1(C(=O)NCCN2CCOCC2)N=C(c2ccc(OCCCO)cc2)O[C@H]1c1ccccc1"
Given back: -0.255

Asked: Moving on to "CC(=O)NCCCC[C@@H]1NC(=O)[C@H]2C[C@@H](C(=O)O)[C@@H](c3cccc(OCCO)c3)N2C1=O"
Given back: -0.401
